subject.of.test: HLA-A*02 (human)
assay.remarks: UV-ligand exchange, anti-b2m ELISA; grade: exchange yield >=20%
Record form. Attribute: peptide exchange yield. Fill in for each entry.

Example results:
binder	peptide exchange yield
KLLAATVLLL	20 to 50%
RLLAKIICL	20 to 50%
RLYTMDGITV	20 to 50%

Query: peptide exchange yield; subject: LTDITKGV
20 to 50%
